Target: NAMPT (human, recombinant, C-terminally His-tagged) (Homo sapiens, UniProt P43490)
Sequence (P43490 whole entry): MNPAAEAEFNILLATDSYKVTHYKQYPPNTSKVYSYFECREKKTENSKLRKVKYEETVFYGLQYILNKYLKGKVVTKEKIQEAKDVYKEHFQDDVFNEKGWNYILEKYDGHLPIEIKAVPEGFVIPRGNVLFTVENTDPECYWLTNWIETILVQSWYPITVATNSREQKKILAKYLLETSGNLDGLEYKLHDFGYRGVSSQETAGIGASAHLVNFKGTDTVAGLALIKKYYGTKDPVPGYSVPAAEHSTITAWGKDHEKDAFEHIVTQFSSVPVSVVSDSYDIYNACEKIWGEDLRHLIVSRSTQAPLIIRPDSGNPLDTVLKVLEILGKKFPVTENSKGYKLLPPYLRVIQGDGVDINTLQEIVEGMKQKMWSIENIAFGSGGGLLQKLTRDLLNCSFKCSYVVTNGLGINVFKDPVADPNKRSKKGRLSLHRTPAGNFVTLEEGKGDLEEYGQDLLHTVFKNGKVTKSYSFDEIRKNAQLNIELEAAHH
Assay: Time-Resolved Fluorescence Resonance Energy Transfer (TR-FRET) Binding Assay of NAMPT
Conditions: without substrates; 6.8 nM NAMPT, 200 nM probe, 3 hours equilibration
Procedure: Determination of the utility of compounds having Formula (I) as binders to and inhibitors of NAMPT was performed using Time-Resolved Fluorescence Resonance Energy Transfer (TR-FRET) binding assays. Time-Resolved Fluorescence Resonance Energy Transfer (TR-FRET) Binding Assay of NAMPT […]
MEASURED METRIC: IC50 (nM)
Quick note: give the figure in nM, leave out the unit.

Query block: Hello, I am looking for reported IC50 with NAMPT (human, recombinant, C-terminally His-tagged) (Homo sapiens, UniProt P43490) for O=C(NCc1ccn2ccnc2c1)c1ccc(C2CCN(C(=O)c3ccc(F)cc3F)CC2)cc1 [Example 506] . Could you help?
Result block: 245

Query block: Hello, I am looking for reported IC50 with NAMPT (human, recombinant, C-terminally His-tagged) (Homo sapiens, UniProt P43490) for O=C(NCc1ccn2ccnc2c1)c1ccc(-c2ccc(N3CCOCC3)nc2)s1 [Example 464] . Could you help?
Result block: 63.4

Query block: Hello, I am looking for reported IC50 with NAMPT (human, recombinant, C-terminally His-tagged) (Homo sapiens, UniProt P43490) for O=C(NCc1ccn2ccnc2c1)c1ccc(C2CCN(C(=O)c3cnccn3)CC2)cc1 [Example 523] . Could you help?
Result block: 343

Query block: Hello, I am looking for reported IC50 with NAMPT (human, recombinant, C-terminally His-tagged) (Homo sapiens, UniProt P43490) for O=C(NCc1ccc2nccn2c1)c1ccc(C2=CCN(C(=O)CC3CCOCC3)CC2)cc1 [Example 93] . Could you help?
Result block: 389

---

target: NAMPT (human, recombinant, C-terminally His-tagged) (Homo sapiens, UniProt P43490); assay: Time-Resolved Fluorescence Resonance Energy Transfer (TR-FRET) Binding Assay of NAMPT; settings: without substrates; 6.8 nM NAMPT, 200 nM probe, 3 hours equilibration
Exercise: for every item that follows, state its recorded pIC50.
Reminder that pIC50 is minus the log10 of a molar concentration.

Query block: pIC50 for "O=C(NCc1ccn2ccnc2c1)c1ccc(C2CCN(C(=O)c3ccno3)CC2)s1" ?
Result block: 7.39

Query block: pIC50 for "CC(C)C(=O)N1CC(Oc2ccc(NC(=O)NCc3ccn4ccnc4c3)cc2)C1" ?
Result block: 6.82

Query block: pIC50 for Cc1ccc(C(=O)N2CCC(c3ccc(C(=O)NCc4ccn5ccnc5c4)cc3)C2)cc1 (stereo not shown) ?
Result block: 6.29

Query block: pIC50 for "O=C(NCc1ccn2ccnc2c1)c1ccc(C2=CCN(S(=O)(=O)C3CC3)CC2)s1" ?
Result block: 7.14

Query block: pIC50 for "O=C(NCc1ccn2ccnc2c1)c1ccc(C2CCN(C(=O)Cc3ccccc3)CC2)cc1" ?
Result block: 6.56

Query block: pIC50 for O=C(NCc1ccn2ccnc2c1)c1ccc(C2CCN(C(=O)CC3CC3)C2)s1 (stereo not shown) ?
Result block: 6.91

Query block: pIC50 for "CC(C)C(=O)N1CCC(O)(c2ccc(C(=O)NCc3ccn4ccnc4c3)s2)CC1" ?
Result block: 6.35

Query block: pIC50 for "CC[C@H](C)C(=O)NC1(c2ccc(C(=O)NCc3ccn4ccnc4c3)s2)COC1" ?
Result block: 6.56

Query block: pIC50 for "CC(C)C(=O)N1CC=C(c2ccc(C(=O)NCc3ccn4ccnc4c3)o2)CC1" ?
Result block: 5.97

Query block: pIC50 for "N#Cc1cccc(C(=O)N2CC(c3ccc(C(=O)NCc4ccn5ccnc5c4)cc3)C2)c1" ?
Result block: 6.08

Query block: pIC50 for "Cn1cccc1C(=O)N1CCC(c2ccc(C(=O)NCc3ccn4ccnc4c3)cc2)CC1" ?
Result block: 7.00

Query block: pIC50 for O=C(NCc1ccc2nccn2c1)c1cnc(N2CCC(c3ccccc3)C2)s1 (stereo not shown) ?
Result block: 5.69

Query block: pIC50 for "CC(C)COC(=O)N1CCC(c2ccc(C(=O)NCc3ccn4ccnc4c3)s2)CC1" ?
Result block: 7.38

Query block: pIC50 for "O=C(CC1CCCC1)Nc1ccc(C(=O)NCc2ccc3nccn3c2)c(F)c1" ?
Result block: 7.23

Query block: pIC50 for "CC[C@H](C)C(=O)N1CCC(Oc2ccc(C(=O)NCc3ccn4ccnc4c3)cc2)CC1" ?
Result block: 6.09

Query block: pIC50 for "O=C(NCc1ccn2ccnc2c1)c1cnc(C2=CCN(C(=O)c3ccccc3)CC2)s1" ?
Result block: 6.75

Query block: pIC50 for "O=C(NCc1ccn2ccnc2c1)c1ccc(-c2cnn(CCO)c2)s1" ?
Result block: 6.50

Query block: pIC50 for "CS(=O)(=O)CCn1cc(-c2ccc(C(=O)NCc3ccn4ccnc4c3)s2)cn1" ?
Result block: 7.21

Query block: pIC50 for "CC(C)(O)Cn1cc(-c2ccc(C(=O)NCc3ccc4nccn4c3)s2)cn1" ?
Result block: 7.22

---

molecular target: NAMPT (human, recombinant, C-terminally His-tagged) (Homo sapiens); test: Time-Resolved Fluorescence Resonance Energy Transfer (TR-FRET) Binding Assay of NAMPT; settings: without substrates; 6.8 nM NAMPT, 200 nM probe, 3 hours equilibration
MEASURED METRIC: IC50 (nM)
Quick note: give the figure in nM, leave out the unit.

Query block: IC50 for "Cn1ccc(C(=O)N2CC(c3ccc(C(=O)NCc4ccn5ccnc5c4)cc3)C2)n1" ?
Result block: 454

Query block: IC50 for "CC(C)(C)OC(=O)N1CCC(Oc2ccc(C(=O)NCc3ccc4nccn4c3)cc2)CC1" ?
Result block: 818

Query block: IC50 for CCC(C)(C)C(=O)N1CCC(c2ccc(C(=O)NCc3ccn4ccnc4c3)s2)C1 (stereo not drawn) ?
Result block: 47.1

Query block: IC50 for CC(C)CS(=O)(=O)N1CCC(c2ncc(C(=O)NCc3ccn4ccnc4c3)s2)C1 (stereo not drawn) ?
Result block: 1240

Query block: IC50 for "COCCNC(=O)N(C[C@H]1CCCO1)c1ncc(C(=O)NCc2ccc3nccn3c2)s1" ?
Result block: 118

Query block: IC50 for "O=C(NCc1cn2ccnc2cn1)c1ccc(C2CCN(C(=O)CC(F)(F)F)CC2)cc1" ?
Result block: 53

Query block: IC50 for "O=C(NCc1ccn2ccnc2c1)Nc1ccc(OC2CCN(C(=O)C3CCOCC3)CC2)cc1" ?
Result block: 422

Query block: IC50 for O=C(NCc1ccc2nccn2c1)c1ccc(C2=CCN(C(=O)C3CCCO3)CC2)cc1 (stereo not drawn) ?
Result block: 119

Query block: IC50 for CC1CC1C(=O)N1CCC(c2ccc(C(=O)NCc3ccn4ccnc4c3)cc2)C1 (stereo not drawn) ?
Result block: 1470

---

target: NAMPT (human, recombinant, C-terminally His-tagged) (Homo sapiens, UniProt P43490); assay: Time-Resolved Fluorescence Resonance Energy Transfer (TR-FRET) Binding Assay of NAMPT; conditions: without substrates; 6.8 nM NAMPT, 200 nM probe, 3 hours equilibration
Labelling field: enter label 1 if recorded IC50 is less than 0.2 µM. Enter label 0 if it equals or exceeds that cut-off.

Query block: Lab note: IC50 threshold 0.2 µM. Does this compound come in strictly under it? "O=C(CC1CCCC1)Nc1ccc(C(=O)NCc2ccn3ncnc3c2)cc1"
Result block: label 0

Query block: Lab note: IC50 threshold 0.2 µM. Does this compound come in strictly under it? O=C(NCc1ccn2ccnc2c1)c1ccc(C2CCN(C(=O)c3cccc(Cl)c3)C2)cc1 (centres unmarked)
Result block: label 0

Query block: Lab note: IC50 threshold 0.2 µM. Does this compound come in strictly under it? "CCC(=O)N1CCC(c2ccc(C(=O)NCc3ccn4ccnc4c3)cc2)CC1"
Result block: label 0

Query block: Lab note: IC50 threshold 0.2 µM. Does this compound come in strictly under it? "N#Cc1ccc(CN(C(=O)CC2CCCC2)c2ccc(C(=O)NCc3ccc4nccn4c3)cc2)cc1"
Result block: label 0

Query block: Lab note: IC50 threshold 0.2 µM. Does this compound come in strictly under it? "O=C(CC1CCOCC1)Nc1ccc(NC(=O)NCc2ccn3ccnc3c2)cc1"
Result block: label 1

---

target: NAMPT (human, recombinant, C-terminally His-tagged) (Homo sapiens, UniProt P43490); test: Time-Resolved Fluorescence Resonance Energy Transfer (TR-FRET) Binding Assay of NAMPT; settings: without substrates; 6.8 nM NAMPT, 200 nM probe, 3 hours equilibration
MEASURED METRIC: IC50 (nM)
Quick note: give the figure in nM, leave out the unit.

Query block: IC50 for O=C(NCc1ccn2ccnc2c1)c1ccc(C2CCN(C(=O)c3cccc(F)c3)C2)cc1 (stereo not drawn) ?
Result block: 138

Query block: IC50 for "O=C(CCc1ccccc1)Nc1ccc(NC(=O)NCc2ccc3nccn3c2)cc1" ?
Result block: 68.8

Query block: IC50 for "O=C(NCc1ccn2ccnc2c1)c1ccc(-c2cnn(CC3(F)CCOCC3)c2)o1" ?
Result block: 79.5
